Can you tell me activity at 30 µM for the items I'm about to list?
# System: NR1/NR2A (Homo sapiens)
# Construct: expressed in transfected cells; host or cells: Xenopus laevis oocytes
# Sequence (Q12879 23-1464, species assumed, other chains not shown): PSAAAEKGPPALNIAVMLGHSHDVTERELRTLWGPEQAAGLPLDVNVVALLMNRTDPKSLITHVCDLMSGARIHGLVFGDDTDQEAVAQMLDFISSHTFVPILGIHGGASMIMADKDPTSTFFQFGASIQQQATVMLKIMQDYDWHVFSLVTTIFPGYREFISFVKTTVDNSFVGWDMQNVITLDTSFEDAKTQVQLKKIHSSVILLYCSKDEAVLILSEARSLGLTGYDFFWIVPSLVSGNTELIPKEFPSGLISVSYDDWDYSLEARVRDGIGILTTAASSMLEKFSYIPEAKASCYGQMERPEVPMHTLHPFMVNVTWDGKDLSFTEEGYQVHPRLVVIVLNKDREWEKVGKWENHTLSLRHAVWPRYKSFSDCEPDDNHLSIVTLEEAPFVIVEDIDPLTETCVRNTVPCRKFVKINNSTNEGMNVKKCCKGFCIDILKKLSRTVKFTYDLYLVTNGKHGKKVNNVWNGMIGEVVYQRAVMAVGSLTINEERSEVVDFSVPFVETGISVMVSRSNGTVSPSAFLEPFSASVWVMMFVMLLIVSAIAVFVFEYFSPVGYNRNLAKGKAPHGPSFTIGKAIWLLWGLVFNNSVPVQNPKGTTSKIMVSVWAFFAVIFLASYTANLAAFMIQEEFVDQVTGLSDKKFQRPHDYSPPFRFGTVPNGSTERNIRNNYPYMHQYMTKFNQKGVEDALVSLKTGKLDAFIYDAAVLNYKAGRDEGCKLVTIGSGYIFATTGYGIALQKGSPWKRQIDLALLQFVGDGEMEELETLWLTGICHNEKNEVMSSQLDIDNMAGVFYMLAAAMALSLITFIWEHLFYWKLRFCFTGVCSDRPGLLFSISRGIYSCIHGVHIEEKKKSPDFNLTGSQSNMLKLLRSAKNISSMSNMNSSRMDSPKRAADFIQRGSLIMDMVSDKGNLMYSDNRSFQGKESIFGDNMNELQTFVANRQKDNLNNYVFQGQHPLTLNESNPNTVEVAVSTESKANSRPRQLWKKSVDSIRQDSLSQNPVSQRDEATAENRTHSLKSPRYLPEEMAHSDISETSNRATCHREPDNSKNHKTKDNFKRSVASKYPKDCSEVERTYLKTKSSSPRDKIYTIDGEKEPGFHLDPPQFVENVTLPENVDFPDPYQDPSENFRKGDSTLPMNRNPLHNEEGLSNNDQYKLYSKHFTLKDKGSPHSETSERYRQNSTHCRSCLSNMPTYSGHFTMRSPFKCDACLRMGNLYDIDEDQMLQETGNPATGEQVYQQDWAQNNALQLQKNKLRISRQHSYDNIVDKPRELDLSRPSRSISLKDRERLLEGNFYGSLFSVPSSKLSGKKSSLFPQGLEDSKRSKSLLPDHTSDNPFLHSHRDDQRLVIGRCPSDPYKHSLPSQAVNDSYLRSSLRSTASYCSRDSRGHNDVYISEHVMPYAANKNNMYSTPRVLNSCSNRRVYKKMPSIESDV
# Measurement protocol: Two electrode voltage clamp, Xenopus laevis oocytes expressing NR1/NR2A
# Format: cell-based
# Measurement parameters: at 30 μM; read-out: 2A percent effect at the maximum tested concentration
# Experimental: In the table above, potency is expressed as fitted EC50 value to average composite concentration-effect data constructed from current responses recorded under two electrode voltage clamp from Xenopus laevis oocytes expressing either NR1/NR2A, B, C, or D, GluR1, or GluR6. No effect means less than 20% change in response amplitude at 30 μM of drug.
Give bare numbers, in %.

Record activity at 30 µM per entry; entries follow.
1. COc1ccc(OCC2c3cc(OC)c(OC)cc3CCN2C(=O)c2cccc(Cl)c2Cl)cc1 (stereo not shown)
2. COc1ccc(OC[C@@H]2c3cc(OC)c(OC)cc3CCN2C(=O)c2cccc(Cl)c2)cc1
3. COc1ccc(/C=C/C2c3cc(OC)c(OC)cc3CCN2C(=O)c2cccc(Cl)c2)cc1 (stereo not shown)
4. COc1ccc(OCC2c3cc(OC)c(OC)cc3CCN2C(=O)c2cccc(I)c2)cc1 (stereo not shown)

RESULT:
97
128
95
84

---

# System: NR1/NR2C (Homo sapiens, UniProt Q05586+Q14957)
# Measurement protocol: Two electrode voltage clamp, Xenopus laevis oocytes expressing NR1/NR2C
# Measurement parameters: Example 1; read-out: EC50 value for potentiation of NR2C-containing receptors
# Excerpt: Values are mean+SEM (n=14-20). […] C is the closed level; broken line is the open level. The Hill slope at both receptors for all analogues was greater than 1, consistent with a cooperative effect of binding at two sites. In the table above, potency is expressed as fitted EC50 value to average composite concentration-effect data constructed from current responses recorded under two electrode voltage clamp from Xenopus laevis oocytes expressing either NR1/NR2A, B, C, or D, GluR1, or GluR6. […]
Measured endpoint: EC50 (µM)
Give bare numbers, in µM.

// field: EC50; key: COc1ccc(OCC2c3cc(OC)c(OC)cc3CCN2C(=O)c2ccccc2)cc1 (stereo not shown) ; value = 11

---

# System: NR1/NR2D (Homo sapiens, UniProt O15399+Q05586)
# Sequence (O15399 28-1336, species assumed, other chains not shown): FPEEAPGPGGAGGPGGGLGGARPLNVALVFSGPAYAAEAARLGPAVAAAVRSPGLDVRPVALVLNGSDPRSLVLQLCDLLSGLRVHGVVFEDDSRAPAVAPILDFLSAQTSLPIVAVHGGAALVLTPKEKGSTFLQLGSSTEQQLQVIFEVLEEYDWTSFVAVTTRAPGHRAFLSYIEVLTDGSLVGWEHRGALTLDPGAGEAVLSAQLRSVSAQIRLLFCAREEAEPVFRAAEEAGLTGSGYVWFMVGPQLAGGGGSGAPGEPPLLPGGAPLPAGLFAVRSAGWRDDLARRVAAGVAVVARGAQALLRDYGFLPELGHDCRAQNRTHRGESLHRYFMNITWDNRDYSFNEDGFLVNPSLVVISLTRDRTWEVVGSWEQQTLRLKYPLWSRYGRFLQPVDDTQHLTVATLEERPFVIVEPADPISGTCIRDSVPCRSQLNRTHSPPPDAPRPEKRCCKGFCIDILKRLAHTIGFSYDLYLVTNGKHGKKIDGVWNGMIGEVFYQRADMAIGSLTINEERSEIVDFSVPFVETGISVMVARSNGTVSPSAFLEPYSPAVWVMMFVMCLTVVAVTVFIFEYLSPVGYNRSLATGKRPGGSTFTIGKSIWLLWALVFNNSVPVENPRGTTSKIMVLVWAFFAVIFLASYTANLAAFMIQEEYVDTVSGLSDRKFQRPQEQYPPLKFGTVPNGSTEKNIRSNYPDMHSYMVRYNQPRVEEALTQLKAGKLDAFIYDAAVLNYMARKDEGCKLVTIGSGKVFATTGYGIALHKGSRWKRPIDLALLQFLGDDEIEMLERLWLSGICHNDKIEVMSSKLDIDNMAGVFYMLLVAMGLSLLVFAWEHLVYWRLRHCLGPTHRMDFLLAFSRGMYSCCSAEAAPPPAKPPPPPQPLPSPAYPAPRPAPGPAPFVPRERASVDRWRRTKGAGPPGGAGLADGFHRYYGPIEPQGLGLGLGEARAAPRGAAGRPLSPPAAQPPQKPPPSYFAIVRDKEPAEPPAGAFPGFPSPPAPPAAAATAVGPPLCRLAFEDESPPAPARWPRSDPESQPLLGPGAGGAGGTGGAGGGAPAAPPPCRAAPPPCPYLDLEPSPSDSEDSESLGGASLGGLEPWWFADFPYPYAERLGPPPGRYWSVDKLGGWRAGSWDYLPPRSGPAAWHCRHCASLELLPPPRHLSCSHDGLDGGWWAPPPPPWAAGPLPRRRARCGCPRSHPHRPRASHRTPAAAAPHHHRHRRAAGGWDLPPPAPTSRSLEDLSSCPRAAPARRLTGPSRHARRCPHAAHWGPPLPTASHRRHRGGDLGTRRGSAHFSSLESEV
# Measurement protocol: Two electrode voltage clamp, Xenopus laevis oocytes expressing NR1/NR2D
# Measurement parameters: read-out: 2D percent effect at the maximum tested concentration, at 100 μM
Mark each entry true (1) if its activity at 100 µM sits below 90%, and false (0) for all others.

// below: answered molecules
>>> label_class("COc1cc2c(cc1OC)C(COc1ccccc1OC)N(C(=O)c1cccc(Cl)c1)CC2 (stereo not drawn)")
"true (1)"
>>> label_class("COc1ccc(OCC2c3cc(OC)c(OC)cc3CCN2C(=O)c2ccno2)cc1 (stereo not drawn)")
"true (1)"
>>> label_class("COc1ccc(OCC2c3cc(OC)c(OC)cc3CCN2C(=S)Nc2cccc(F)c2)cc1 (stereo not drawn)")
"false (0)"

QUERY: Is the reported activity at 100 µM for CCc1ccc(OCC2c3cc(OC)c(OC)cc3CCN2C(=O)c2ccccc2)cc1 (stereo not drawn) strictly below 90%?
RESULT: false (0)

QUERY: Threshold test, activity at 100 µM < 90%: COc1cc2c(cc1OC)C(COc1ccc(OC(F)(F)F)cc1)N(C(=O)c1cccc(Cl)c1)CC2 (stereo not drawn)
RESULT: false (0)

QUERY: For this molecule, is activity at 100 µM lower than 90%? Cc1csc(C(=O)O)c1NC(=O)c1ccc(C(C)(C)C)cc1
RESULT: true (1)

QUERY: Report whether reported activity at 100 µM is lower than 90% (strictly) for COc1cc2c(cc1OC)C(COc1ccccc1)N(C(=O)c1ccccc1)CC2 (stereo not drawn)
RESULT: true (1)

QUERY: Say whether its activity at 100 µM is strictly beneath 90%. Entry: CC(C)c1ccc(C(=O)Nc2sccc2C(=O)O)cc1
RESULT: true (1)

---

# System: NR1/NR2D (Homo sapiens, UniProt O15399+Q05586)
# Measurement protocol: Two electrode voltage clamp, Xenopus laevis oocytes expressing NR1/NR2D
# Measurement parameters: read-out: 2D Max
Please go through the items and note down their Emax.
For clarity, give the value followed by its unit.

As a guide, the following entries are already answered.
>>> result("CCc1cc(C(=O)O)c(NC(=O)c2ccc(C(C)(C)C)cc2)s1")
"152%"
>>> result("COc1ccc(OCC2c3cc4c(cc3CCN2C(=O)c2cccc(Cl)c2)OCO4)cc1 (stereo not drawn)")
"162%"
>>> result("COc1ccc(OCC2c3ccc(OC)cc3CCN2C(=O)c2cccc(Br)c2)cc1 (stereo not drawn)")
"168%"
>>> result("COc1ccc(OCC2c3cc(OC)c(OC)cc3CCN2C(=O)c2ccc(Cl)c(Cl)c2)cc1 (stereo not drawn)")
"172%"
>>> result("COc1ccc(OCC2c3cc(OC)c(OC)cc3CCN2C(=O)c2cccc(F)c2)cc1 (stereo not drawn)")
"169%"
>>> result("COc1ccc(OCC2c3ccc(OC)cc3CCN2C(=O)c2cccc(Cl)c2)cc1 (stereo not drawn)")
"185%"
>>> result("CC(C)(C)c1ccc(C(=O)Nc2sc3c(c2C(=O)O)CCCC3)cc1")
"205%"
>>> result("COc1ccc(OCC2c3cc(OC)c(OC)cc3CCN2C(=O)c2ccccc2)cc1 (stereo not drawn)")
"156%"

I'm hoping you can list Emax for every compound here, please.
1. COc1ccc(OCC2c3cc(OC)c(OC)cc3CCN2C(=O)c2cccc(OC)c2)cc1 (stereo not drawn)
2. Cc1sc(NC(=O)c2ccc(C(C)(C)C)cc2)c(C(=O)O)c1C
3. Cc1ccc(-c2csc(NC(=O)c3ccc(C(C)(C)C)cc3)c2C(=O)O)cc1
4. COc1ccc(OCC2c3c(cc(OC)cc3OC)CCN2C(=O)c2ccccc2)cc1 (stereo not drawn)
5. CC1CCc2c(sc(NC(=O)c3ccc(C(C)(C)C)cc3)c2C(=O)O)C1 (stereo not drawn)
6. COc1ccc(-c2csc(NC(=O)c3ccc(C(C)(C)C)cc3)c2C(=O)O)cc1

RESULT:
["179%", "195%", "273%", "150%", "124%", "475%"]

For each of the items listed, what is its Emax?
1. CC(C)(C)c1ccc(C(=O)Nc2sc3c(c2C(=O)O)CCC3)cc1
2. Cc1sc(NC(=O)c2ccc(C(C)(C)C)cc2)c(C(N)=O)c1C
3. COc1ccc(OCC2c3cc(OC)c(OC)cc3CCN2C(=O)c2cccs2)cc1 (stereo not drawn)

RESULT:
1. 261%
2. 150%
3. 112%

Emax reading for CC(C)(C)c1ccc(CSc2nc(N)cc(O)n2)cc1 : 614%

---

Would you mind telling me the reported activity at 100 µM of each entry?
# System: NR1/NR2B (Homo sapiens, UniProt Q05586+Q13224)
# Construct: expressed in transfected cells; host or cells: Xenopus laevis oocytes
# Sequence (Q13224 27-1484, species assumed, other chains not shown): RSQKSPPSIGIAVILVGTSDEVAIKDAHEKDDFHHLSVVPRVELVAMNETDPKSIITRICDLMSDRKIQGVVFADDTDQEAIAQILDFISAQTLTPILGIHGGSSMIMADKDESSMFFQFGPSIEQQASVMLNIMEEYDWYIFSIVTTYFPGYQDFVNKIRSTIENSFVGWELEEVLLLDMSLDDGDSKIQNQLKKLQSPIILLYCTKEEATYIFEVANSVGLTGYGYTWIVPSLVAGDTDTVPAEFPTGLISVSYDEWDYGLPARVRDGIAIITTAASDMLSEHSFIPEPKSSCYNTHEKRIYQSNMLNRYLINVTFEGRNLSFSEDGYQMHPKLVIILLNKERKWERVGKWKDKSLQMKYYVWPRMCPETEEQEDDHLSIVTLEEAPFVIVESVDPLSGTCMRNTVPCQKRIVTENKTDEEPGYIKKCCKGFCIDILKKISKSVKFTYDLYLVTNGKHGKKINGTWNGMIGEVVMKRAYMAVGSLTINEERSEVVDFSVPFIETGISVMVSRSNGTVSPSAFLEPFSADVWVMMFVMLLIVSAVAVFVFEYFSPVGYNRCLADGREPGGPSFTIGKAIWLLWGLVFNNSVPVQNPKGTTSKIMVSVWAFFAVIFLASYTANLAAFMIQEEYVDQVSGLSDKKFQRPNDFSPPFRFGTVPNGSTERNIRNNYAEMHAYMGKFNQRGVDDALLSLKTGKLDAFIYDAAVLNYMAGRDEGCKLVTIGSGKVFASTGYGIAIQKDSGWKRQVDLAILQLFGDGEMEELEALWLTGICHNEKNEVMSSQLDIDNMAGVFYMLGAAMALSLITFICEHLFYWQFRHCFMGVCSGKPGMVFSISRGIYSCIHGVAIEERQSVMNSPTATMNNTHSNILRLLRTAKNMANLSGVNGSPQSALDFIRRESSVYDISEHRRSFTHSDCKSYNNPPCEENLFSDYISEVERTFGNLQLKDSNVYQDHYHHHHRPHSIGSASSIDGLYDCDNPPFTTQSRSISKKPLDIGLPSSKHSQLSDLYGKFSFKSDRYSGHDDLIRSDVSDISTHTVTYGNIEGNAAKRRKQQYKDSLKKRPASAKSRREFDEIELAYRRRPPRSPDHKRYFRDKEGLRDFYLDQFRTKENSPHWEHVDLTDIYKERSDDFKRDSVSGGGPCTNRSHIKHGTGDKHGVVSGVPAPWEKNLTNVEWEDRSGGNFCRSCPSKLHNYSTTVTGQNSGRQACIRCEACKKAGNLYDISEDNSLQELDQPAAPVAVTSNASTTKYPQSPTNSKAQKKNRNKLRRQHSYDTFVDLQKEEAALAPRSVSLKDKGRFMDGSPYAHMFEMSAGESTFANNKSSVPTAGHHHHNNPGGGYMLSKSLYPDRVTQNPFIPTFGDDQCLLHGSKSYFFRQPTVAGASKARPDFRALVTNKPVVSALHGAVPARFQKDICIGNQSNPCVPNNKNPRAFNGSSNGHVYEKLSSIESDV
# Measurement protocol: Two electrode voltage clamp, Xenopus laevis oocytes expressing NR1/NR2B
# Format: cell-based
# Measurement parameters: at 100 μM; read-out: 2B percent effect at the maximum tested concentration
Provide the measurement as a number trailed by its unit.

Would you please look over these solved cases?
>>> result("COc1cc2c(cc1OC)CN(C(=O)c1ccccc1)CC2 [1180-28]")
"95%"
>>> result("Cc1csc(C(=O)O)c1NC(=O)c1ccc(C(C)(C)C)cc1 [compound 1428]")
"70%"

Look at each molecule and report its activity at 100 µM.
1. COc1ccc(OCC2c3cc4c(cc3CCN2C(=O)c2cccc(Cl)c2)OCO4)cc1 (centres unmarked) [1180-25]
2. CC(C)(C)c1ccc(C(=O)NC2=C(C(=O)O)C3CCCCCC3S2)cc1 (centres unmarked) [compound 1482]
3. CC(C)c1ccc(C(=O)Nc2sccc2C(=O)O)cc1 [compound 1488]

RESULT:
["76%", "116%", "83%"]

---

# System: NR1/NR2B (Homo sapiens, UniProt Q05586+Q13224)
# Construct: expressed in transfected cells; host or cells: Xenopus laevis oocytes
# Measurement protocol: Two electrode voltage clamp, Xenopus laevis oocytes expressing NR1/NR2B
# Assay type: cell-based
# Measurement parameters: at 100 μM; read-out: 2B percent effect at the maximum tested concentration
Kindly supply the reported activity at 100 µM values for the records listed here.
A bare number is not enough; add the unit after it.

Answered cases to consult:
>>> result("COc1ccc(NC(O)C2CN(C(C)C)C(=O)c3cc(OC)c(OC)cc32)c(OC)c1 (centres unmarked) [compound 1440]")
"90%"
>>> result("COc1ccc(OCC2c3cc(OC)c(OC)cc3CCN2C(=O)c2cccc(O)c2)cc1 (centres unmarked) [1180-3]")
"78%"
>>> result("COc1ccc(OCC2c3cc(OC)c(OC)cc3CCN2C(=O)c2ccccn2)cc1 (centres unmarked) [compound 1484]")
"80%"
>>> result("COc1cc2c(cc1OC)C(COc1ccccc1OC)N(C(=O)c1cccc(Cl)c1)CC2 (centres unmarked) [1180-8]")
"89%"

Kindly consider the entry below.
// CCc1ccc(C(=O)Nc2sccc2C(=O)O)cc1 [compound 1489] : activity at 100 µM value = 78%
